B1: Segment polarity protein dishevelled homolog DVL-3, residues 2 to 81; numbered along this chain, Q92997 (parent)
chain: GETKIIYHLDGQETPYLVKLPLPAERVTLADFKGVLQRPSYKFFFKSMDDDFGVVKEEISDDNAKLPCFNGRVVSWLVSA

- Variants of: B1
- test.protocol: abundance fitness (aPCA) (normalised: wild type 0, dead -1); higher = more abundant; growth selection in yeast, the domain comes from the species named
- cond: Homo sapiens
Provide the reported abundance fitness of each item.
Enter the number alone.

Requested read-out: abundance fitness. Entry: `K42F` 0.052

Requested read-out: abundance fitness. Entry: `P39C` -0.306

Requested read-out: abundance fitness. Entry: `V74H` -0.249

Requested read-out: abundance fitness. Entry: `C68T` 0.103

Requested read-out: abundance fitness. Entry: `F52Y` -0.063

Requested read-out: abundance fitness. Entry: `A30R` 0.034

Requested read-out: abundance fitness. Entry: `S47M` 0.415

Requested read-out: abundance fitness. Entry: `D62G` -0.818

Requested read-out: abundance fitness. Entry: `V78M` -0.19

Requested read-out: abundance fitness. Entry: `E58G` -0.733

Requested read-out: abundance fitness. Entry: `M48K` 0.039

Requested read-out: abundance fitness. Entry: `T28W` -0.851

Requested read-out: abundance fitness. Entry: `L29C` -0.287

Requested read-out: abundance fitness. Entry: `D50E` -0.184

Requested read-out: abundance fitness. Entry: `P39Y` -0.494

Requested read-out: abundance fitness. Entry: `R26I` -0.34

Requested read-out: abundance fitness. Entry: `I59N` -0.736

Requested read-out: abundance fitness. Entry: `V35S` -0.257

Requested read-out: abundance fitness. Entry: `D31I` -0.173

Requested read-out: abundance fitness. Entry: `V35Q` -0.218

Requested read-out: abundance fitness. Entry: `E58S` -0.62

Requested read-out: abundance fitness. Entry: `S79M` -0.556

Requested read-out: abundance fitness. Entry: `T28H` -0.411

Requested read-out: abundance fitness. Entry: `A64L` -0.904

Requested read-out: abundance fitness. Entry: `D49C` 0.013

Requested read-out: abundance fitness. Entry: `V54E` 0.192

Requested read-out: abundance fitness. Entry: `R72G` -0.416

Requested read-out: abundance fitness. Entry: `V78L` -0.398

Requested read-out: abundance fitness. Entry: `A24E` -0.415

Requested read-out: abundance fitness. Entry: `L66I` -0.461

Requested read-out: abundance fitness. Entry: `G34Y` -0.388

Requested read-out: abundance fitness. Entry: `D61M` -0.335

Requested read-out: abundance fitness. Entry: `D51M` -0.279

Requested read-out: abundance fitness. Entry: `V35N` -0.375

Requested read-out: abundance fitness. Entry: `N63C` -0.157

Requested read-out: abundance fitness. Entry: `L77K` -0.261

Requested read-out: abundance fitness. Entry: `D51N` 0.25

Requested read-out: abundance fitness. Entry: `G34D` 0.418

Requested read-out: abundance fitness. Entry: `P39G` 0.062

Requested read-out: abundance fitness. Entry: `S75W` -0.603

Requested read-out: abundance fitness. Entry: `R38N` 0.255

Requested read-out: abundance fitness. Entry: `A80D` 0.267

Requested read-out: abundance fitness. Entry: `P39K` 0.194

Requested read-out: abundance fitness. Entry: `R72F` 0.219

Requested read-out: abundance fitness. Entry: `V54R` -0.556

Requested read-out: abundance fitness. Entry: `T28N` -0.715

Values compiled from the Human Domainome abundance scans (Beltran et al. 2025).
